- Tested on: 885512-296-R-J2-PDC complex spheroid viability;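 note: spheroids exposed to the compounds for one week; percent of tumor spheroid viability relative to DMSO vehicle control wells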
- experiment summary: Anticancer human tumor 885512-296-R-J2-PDC patient-derived breast carcinoma cell line growth inhibition [GQUAD]
- condition info: second compound 3.16 µM; first compound 10 µM; hits give low values
Would you mind telling me the reported viability, T/C of each entry?
Please state the figure in %; there is no need to write the unit.

-- ask Need viability, T/C, item CCCS(=O)(=O)Nc1ccc(F)c(C(=O)c2c[nH]c3ncc(-c4ccc(Cl)cc4)cc23)c1F + Cc1[nH]c2ccc(F)cc2c1-c1nc2c3cccnc3c3ncccc3c2[nH]1
-- reply 2.26

-- ask Bench note: what viability, T/C did C=CC(=O)N1CCN(c2nc(=O)n(-c3c(C)ccnc3C(C)C)c3nc(-c4c(O)cccc4F)c(F)cc23)C(C)C1 (centres undefined) + Cc1cnc(CNC(=O)c2c(=O)c3ccc(N4CCCN(C)CC4)nc3n3c2sc2ccccc23)cn1 show?
-- reply 32.3

-- ask Query: viability, T/C; subject: Cc1cccc(N(C)C(=O)C2C(O)CCN2c2nc(C)cc(C(F)(F)F)c2C#N)c1 (centres undefined) + Cc1cnc(CNC(=O)c2c(=O)c3ccc(N4CCCN(C)CC4)nc3n3c2sc2ccccc23)cn1
-- reply 30.2

-- ask What viability, T/C value was documented for this compound, CC(=O)O[C@H]1C(=O)[C@@]2(C)[C@H]([C@H](OC(=O)c3ccccc3)[C@]3(O)C[C@H](OC(=O)[C@H](O)[C@@H](NC(=O)c4ccccc4)c4ccccc4)C(C)=C1C3(C)C)[C@]1(OC(C)=O)CO[C@@H]1C[C@@H]2O + Cc1cnc(CNC(=O)c2c(=O)c3ccc(N4CCCN(C)CC4)nc3n3c2sc2ccccc23)cn1 ?
-- reply 0.18

-- ask Entry under review: CCCS(=O)(=O)Nc1ccc(F)c(C(=O)c2c[nH]c3ncc(-c4ccc(Cl)cc4)cc23)c1F + CN(C)c1ccc(Nc2c3ccc(NC(=O)CCN4CCCC4)cc3nc3cc(NC(=O)CCN4CCCC4)ccc23)cc1 . Reported viability, T/C?
-- reply 6.03

-- ask Give its viability, T/C value. Item: COc1cccc2c1C(=O)c1c(O)c3c(c(O)c1C2=O)CC(O)(C(=O)CO)CC3OC1CC(N)C(O)C(C)O1 (centres undefined) + CN(C)c1ccc(Nc2c3ccc(NC(=O)CCN4CCCC4)cc3nc3cc(NC(=O)CCN4CCCC4)ccc23)cc1
-- reply 2.07

-- ask Looking for the measured viability, T/C of CC1COCCN1c1cc(C2(O)CC3CCC(C2)O3)c2cnn(-c3ccn[nH]3)c2n1 (centres undefined) + Cc1cnc(CNC(=O)c2c(=O)c3ccc(N4CCCN(C)CC4)nc3n3c2sc2ccccc23)cn1 , can you help?
-- reply 1.93

-- ask Please look up its viability, T/C: CC1COCCN1c1cc(C2(O)CC3CCC(C2)O3)c2cnn(-c3ccn[nH]3)c2n1 (centres undefined) + Cc1[nH]c2ccc(F)cc2c1-c1nc2c3cccnc3c3ncccc3c2[nH]1
-- reply 3.61

-- ask Look at this compound and give its reported viability, T/C. O=C(NO)c1cnc(N2CCN(S(=O)(=O)c3ccc4ccccc4c3)CC2)nc1 + CN(C)c1ccc(Nc2c3ccc(NC(=O)CCN4CCCC4)cc3nc3cc(NC(=O)CCN4CCCC4)ccc23)cc1
-- reply 0.11

-- ask viability, T/C for CC1COCCN1c1cc(-c2ccnn2C)c2ccnc(-c3ccn[nH]3)c2n1 (centres undefined) + Cc1[nH]c2ccc(F)cc2c1-c1nc2c3cccnc3c3ncccc3c2[nH]1 ?
-- reply 3.81

-- ask Suppose we examine the compound C#Cc1c(F)ccc2cc(O)cc(-c3ncc4c(N5CC6CCC(C5)N6)nc(OCC56CCCN5CC(F)C6)nc4c3F)c12 (centres undefined) + CN(C)c1ccc(Nc2c3ccc(NC(=O)CCN4CCCC4)cc3nc3cc(NC(=O)CCN4CCCC4)ccc23)cc1 ; what viability, T/C value has been reported?
-- reply 41.2

-- ask Recorded viability, T/C for CC(=O)O[C@H]1C(=O)[C@@]2(C)[C@H]([C@H](OC(=O)c3ccccc3)[C@]3(O)C[C@H](OC(=O)[C@H](O)[C@@H](NC(=O)c4ccccc4)c4ccccc4)C(C)=C1C3(C)C)[C@]1(OC(C)=O)CO[C@@H]1C[C@@H]2O + Cc1[nH]c2ccc(F)cc2c1-c1nc2c3cccnc3c3ncccc3c2[nH]1 , please?
-- reply 0.46

-- ask I would be grateful if you could share the reported viability, T/C for O=C(c1cc(Cc2n[nH]c(=O)c3ccccc23)ccc1F)N1CCN(C(=O)C2CC2)CC1 + Cc1cnc(CNC(=O)c2c(=O)c3ccc(N4CCCN(C)CC4)nc3n3c2sc2ccccc23)cn1 .
-- reply 8.85

-- ask Tell me the measured viability, T/C of Cc1cccc(N(C)C(=O)C2C(O)CCN2c2nc(C)cc(C(F)(F)F)c2C#N)c1 (centres undefined) + Cc1[nH]c2ccc(F)cc2c1-c1nc2c3cccnc3c3ncccc3c2[nH]1 , please.
-- reply 19.9

-- ask Please look up its viability, T/C: COc1cc(C2c3cc4c(cc3C(OC3OC5COC(C)OC5C(O)C3O)C3COC(=O)C23)OCO4)cc(OC)c1O (centres undefined) + Cc1[nH]c2ccc(F)cc2c1-c1nc2c3cccnc3c3ncccc3c2[nH]1
-- reply 2.93

-- ask Would you mind telling me what viability, T/C value was observed for C=CCn1c(=O)c2cnc(Nc3ccc(N4CCN(C)CC4)cc3)nc2n1-c1cccc(C(C)(C)O)n1 + CN(C)c1ccc(Nc2c3ccc(NC(=O)CCN4CCCC4)cc3nc3cc(NC(=O)CCN4CCCC4)ccc23)cc1 ?
-- reply 2.74

-- ask Sample COc1ncnc(C2CC2)c1-c1ncc2cnn(Cc3ccc(-c4nc(C(F)(F)F)cn4C(C)C)cc3)c2n1 + CN(C)c1ccc(Nc2c3ccc(NC(=O)CCN4CCCC4)cc3nc3cc(NC(=O)CCN4CCCC4)ccc23)cc1 — what was its viability, T/C?
-- reply 50.3

-- ask // returns reported viability, T/C for input CC1COCCN1c1cc(-c2ccnn2C)c2ccnc(-c3ccn[nH]3)c2n1 (centres undefined) + CN(C)c1ccc(Nc2c3ccc(NC(=O)CCN4CCCC4)cc3nc3cc(NC(=O)CCN4CCCC4)ccc23)cc1
-- reply 7.01

-- ask Dear colleague, I am looking for the recorded viability, T/C of the following compound: CC(C)(O)C1CCC(Nc2ccc3ncc(-c4cccc(C(F)(F)F)c4)n3n2)CC1 (centres undefined) + Cc1[nH]c2ccc(F)cc2c1-c1nc2c3cccnc3c3ncccc3c2[nH]1
-- reply 2.78
